# maps each entry to its TGI
# Test system: MDA-MB-231 breast
# Assay notes: NCI tumour cell line growth inhibition, 48 h

These solved cases illustrate the format of a correct answer.
CC(=O)N1CN2C(=O)CCC2c2cc(C)ccc21 (centres undefined) | > 100 µM
CSc1ccc2c(c1)N(CCCN(C)C)c1ccccc1S2 | 26.3 µM
CCCCCCCC(=O)OC[n+]1cccc(-c2c(COC(=O)NC(C)C)c(COC(=O)NC(C)C)c3n2CCC3)c1 | > 100 µM
c1csc(-c2cc(-c3ccsc3)cs2)c1 | > 100 µM
CN1CCC(C(=O)Nc2n[nH]c3nnc(-c4ccccc4)cc23)CC1 | > 25 µM

Kindly consider the entry below.
Q. Name the recorded TGI of the item CCCC/C=C1/CCC(CN(C)C)C1=O (centres undefined) in your answer.
A. 9.03 µM

---

# Test system: TK-10 renal
# Assay notes: NCI tumour cell line growth inhibition, 48 h
Measurement kind: TGI

// known answers, use as guide
O=c1ccc(=O)c2c1c1[nH]c3ccccc3c1c1c(=O)c3ccccc3c(=O)c21 | > 10 µM
CN(C)CN(C)c1nc(N(C)C)nc(N(C)C)n1 | > 100 µM
CC1CC[C@@]2(OC1)OC1C[C@H]3[C@@H]4CC=C5C[C@@H](OC6OC(CO)C(OC7OC(CO)C(O)C(O)C7O)C(O)C6OC6OC(C)C(O)C(O)C6O)CC[C@]5(C)[C@H]4CC[C@]3(C)C1[C@@H]2C (stereo not given in full) | 3.73 µM
c1ccc2c(c1)n1nnnc1c1nnnn21 | > 100 µM
N#Cc1cc2c(n(C3OC(CO)C(O)C(O)C3O)c1=S)CCC2 (stereo not given) | > 100 µM
C[C@]12CC[C@H]3[C@@H](CCC4=C/C(=N/OCCN5CCCCC5)CC[C@@]43C)[C@@H]1CC[C@@H]2O | 35 µM

Q. Item C=C(C)C1CCC2(C)C1CCC1(C)C2CCC2C3(C)C4OC(OC4=O)C(C)(C)C3CCC21C (stereo not given) : provide TGI
A. > 100 µM

Q. Give the value of TGI reported for the following: CC1(C)O[C@@H](CCl)C[C@@H](C#N)O1
A. > 100 µM

Q. Answer with reported TGI of Cc1cc(Br)c(O)c(-c2cscn2)c1
A. 42 µM

---

# Test system: HS 578T breast
# Assay notes: NCI tumour cell line growth inhibition, 48 h
Reported GI50 by item:

Q. For the compound CNc1ccc(CSc2ccc(C)cc2)cc1 , give its reported GI50.
A. 56 µM

Q. Provide one value: measured GI50 of CC[C@]1(O)C[C@@H]2CN(CCc3c([nH]c4ccccc34)[C@@](C(=O)OC)(c3cc4c(cc3OC)N(C)[C@H]3[C@@](O)(C(=O)OC)[C@H](OC(=O)CCCBr)[C@]5(CC)C=CCN6CC[C@]43[C@@H]65)C2)C1
A. < 0.0185 µM

Q. Could you please provide reported GI50 for CN(Cc1cnc2nc(N)nc(N)c2n1)c1c(Cl)cc(C(=O)NC(CCC(=O)O)C(=O)O)cc1Br (stereo not given) ? Thanks!
A. 17.8 µM

Q. Tell me GI50 reported for COc1ccccc1CNCCCN1C(=O)c2ccc3c4c(ccc(c24)C1=O)C(=O)N(CCCNCCCCN)C3=O
A. 1.14 µM

Q. Identify GI50 associated with the compound O=C(NCCNC1=CC(=O)c2nc3ccccc3c3ccnc1c23)c1cnccn1
A. 32.7 µM

Q. Given the compound Cn1cc(C2=C(c3cccc([N+](=O)[O-])c3)C(=O)NC2=O)c2ccccc21 , write its reported GI50.
A. 2.14 µM

Q. Input COc1ccc([C@H]2c3[nH]c4ccccc4c3C[C@H]3C(=O)N(CCCCCCC(=O)NO)CC(=O)N23)cc1 , output reported GI50.
A. 1.34 µM

Data credit: PubChem BioAssay (NCI)
